# System: Liver
# experiment_notes: Biodistribution in Sprague-Dawley rat liver assessed per gram of tissue at 1 MBq, iv after 4 hrs
# Type: ADME, organism-based
# condition_description: in vivo
assay_metric: Drug uptake (%ID)
Answers are plain numbers, in %ID.

Some solved cases for reference:
compound_structure	assay_metric	result_units	endpoint_result
CCN(CC)C(=O)Cc1c(-c2ccc(OCCC[18F])cc2)nn2c(C)cc(C)nc12	Drug uptake	%ID	0.38
CCN(CC)C(=O)Cc1c(-c2ccc(OCC[18F])cc2)nc2ccc(Cl)cn12	Drug uptake	%ID	0.29
CCN(CC)C(=O)Cc1c(-c2ccc(OCCC[18F])cc2)nc2ccc(Cl)cn12	Drug uptake	%ID	0.3

From here, focus on the item given below.
Which Drug uptake is reported for this molecule? CCN(CC)C(=O)Cc1c(-c2ccc(OCC[18F])cc2)nn2c(C)cc(C)nc12
0.29

###

# Test system: Lung
# experiment_notes: Biodistribution in Sprague-Dawley rat lungs assessed per gram of tissue at 1 MBq, iv after 1 hr
# Type: ADME, organism-based
# condition_description: in vivo
Can you tell me Drug uptake for the items I'm about to list?
Dear colleague, please send the value followed by its unit.

Some solved cases for reference:
compound	Drug uptake
CCN(CC)C(=O)Cc1c(-c2ccc(OCC[18F])cc2)nn2c(C)cc(C)nc12 [DPA-714 F-18]	5.7 %ID
CCN(CC)C(=O)Cc1c(-c2ccc(OCCC[18F])cc2)nc2ccc(Cl)cn12	4.1 %ID
CCN(CC)C(=O)Cc1c(-c2ccc(OCCC[18F])cc2)nn2c(C)cc(C)nc12	7.1 %ID

From here, focus on the item given below.
Recorded Drug uptake for CCN(CC)C(=O)Cc1c(-c2ccc(OCC[18F])cc2)nc2ccc(Cl)cn12 with Lung, please?
11.6 %ID

###

# Test system: Adrenal
# experiment_notes: Biodistribution in Sprague-Dawley rat adrenals assessed per gram of tissue at 1 MBq, iv after 1 hr
# Format: ADME, organism-based, Adrenal tissue
# condition_description: in vivo
assay_metric: Drug uptake (%ID)
Give bare numbers, in %ID.

compound_structure	result_units	Drug uptake
CCN(CC)C(=O)Cc1c(-c2ccc(OCCC[18F])cc2)nc2ccc(Cl)cn12	%ID	9.6
CCN(CC)C(=O)Cc1c(-c2ccc(OCCC[18F])cc2)nn2c(C)cc(C)nc12	%ID	11

I have 2 compounds here; please give me Drug uptake for each one.
1. CCN(CC)C(=O)Cc1c(-c2ccc(OCC[18F])cc2)nn2c(C)cc(C)nc12
2. CCN(CC)C(=O)Cc1c(-c2ccc(OCC[18F])cc2)nc2ccc(Cl)cn12

1: 7.8; 2: 7.3

###

# experiment_notes: Metabolic stability in Sprague-Dawley rat olfactory bulb assessed as drug remaining at 30 MBq after 0.25 hrs by Radio-HPLC analysis
# Format: ADME, tissue-based
# condition_description: read-out: Stability
Can you tell me remaining at 0.25 h for the items I'm about to list?
One number for each entry, in %.

compound_structure	assay_metric	result_units	endpoint_result
CCN(CC)C(=O)Cc1c(-c2ccc(OCC[18F])cc2)nc2ccc(Cl)cn12	remaining at 0.25 h	%	80

From here, focus on the item given below.
Which remaining at 0.25 h is reported for this compound? CCN(CC)C(=O)Cc1c(-c2ccc(OCC[18F])cc2)nn2c(C)cc(C)nc12
80

###

Can you tell me Drug uptake for the items I'm about to list?
# Tested on: Spleen
# experiment_notes: Biodistribution in Sprague-Dawley rat spleen assessed per gram of tissue at 1 MBq, iv after 0.25 hrs
# Format: ADME, organism-based
# condition_description: in vivo
One number for each entry, in %ID.

Some solved cases for reference:
compound	result_units	Drug uptake
CCN(CC)C(=O)Cc1c(-c2ccc(OCCC[18F])cc2)nn2c(C)cc(C)nc12	%ID	5.5
CCN(CC)C(=O)Cc1c(-c2ccc(OCCC[18F])cc2)nc2ccc(Cl)cn12	%ID	5.5
CCN(CC)C(=O)Cc1c(-c2ccc(OCC[18F])cc2)nc2ccc(Cl)cn12	%ID	4.5

Which Drug uptake is reported for this compound? CCN(CC)C(=O)Cc1c(-c2ccc(OCC[18F])cc2)nn2c(C)cc(C)nc12 [DPA-714 F-18]
4.6

###

# System: Kidney
# experiment_notes: Biodistribution in Sprague-Dawley rat kidney assessed per gram of tissue at 1 MBq, iv after 0.25 hrs
# Type: ADME, organism-based
# condition_description: in vivo
Can you tell me Drug uptake for the items I'm about to list?

Some solved cases for reference:
compound	Drug uptake
CCN(CC)C(=O)Cc1c(-c2ccc(OCCC[18F])cc2)nc2ccc(Cl)cn12	4.3 %ID
CCN(CC)C(=O)Cc1c(-c2ccc(OCC[18F])cc2)nn2c(C)cc(C)nc12 [DPA-714 F-18]	3.8 %ID
CCN(CC)C(=O)Cc1c(-c2ccc(OCC[18F])cc2)nc2ccc(Cl)cn12	3.3 %ID

From here, focus on the item given below.
Which Drug uptake is reported for this compound? CCN(CC)C(=O)Cc1c(-c2ccc(OCCC[18F])cc2)nn2c(C)cc(C)nc12
5.5 %ID

###

# target_desc: Translocator protein (Rattus norvegicus)
# Sequence (P16257 whole entry, looked up): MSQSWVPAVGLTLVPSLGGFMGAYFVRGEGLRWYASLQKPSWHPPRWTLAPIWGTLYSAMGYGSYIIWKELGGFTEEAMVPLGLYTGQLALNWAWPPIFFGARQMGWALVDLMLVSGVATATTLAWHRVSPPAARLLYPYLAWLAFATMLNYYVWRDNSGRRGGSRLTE
# experiment_notes: Displacement of [3H]Ro 5-4864 from peripheral benzodiazepine receptor in rat kidney membrane
# Type: cell membranes
assay_metric: Ki (nM)
Answers are plain numbers, in nM.

I have 2 compounds here; please give me Ki for each one.
1. CCN(CC)C(=O)Cc1c(-c2ccc(OCCCF)cc2)nc2ccc(Cl)cn12
2. CCN(CC)C(=O)Cc1c(-c2ccc(OCCF)cc2)nc2ccc(Cl)cn12

1: 4.2; 2: 3.3

###

# System: Adrenal
# experiment_notes: Biodistribution in Sprague-Dawley rat adrenals assessed per gram of tissue at 1 MBq, iv after 0.5 hrs
# Format: ADME, organism-based, Adrenal tissue
# condition_description: in vivo
assay_metric: Drug uptake (%ID)
Answers are plain numbers, in %ID.

compound_structure	target_desc	Drug uptake / %ID
CCN(CC)C(=O)Cc1c(-c2ccc(OCC[18F])cc2)nc2ccc(Cl)cn12	Adrenal	7.9

I have 3 molecules here; please give me Drug uptake for each one.
1. CCN(CC)C(=O)Cc1c(-c2ccc(OCCC[18F])cc2)nc2ccc(Cl)cn12
2. CCN(CC)C(=O)Cc1c(-c2ccc(OCC[18F])cc2)nn2c(C)cc(C)nc12
3. CCN(CC)C(=O)Cc1c(-c2ccc(OCCC[18F])cc2)nn2c(C)cc(C)nc12

1: 11.8; 2: 6.6; 3: 7.9

###

# Test system: Lung
# experiment_notes: Biodistribution in Sprague-Dawley rat lungs assessed per gram of tissue at 1 MBq, iv after 0.5 hrs
# Assay type: ADME, organism-based
# condition_description: in vivo
Can you tell me Drug uptake for the items I'm about to list?
One number for each entry, in %ID.

Some solved cases for reference:
compound_structure	assay_metric	endpoint_result
CCN(CC)C(=O)Cc1c(-c2ccc(OCCC[18F])cc2)nc2ccc(Cl)cn12	Drug uptake	7.7
CCN(CC)C(=O)Cc1c(-c2ccc(OCC[18F])cc2)nn2c(C)cc(C)nc12	Drug uptake	8.8
CCN(CC)C(=O)Cc1c(-c2ccc(OCC[18F])cc2)nc2ccc(Cl)cn12	Drug uptake	12.1

Which Drug uptake is reported for this molecule? CCN(CC)C(=O)Cc1c(-c2ccc(OCCC[18F])cc2)nn2c(C)cc(C)nc12
12.4

###

Can you tell me pKi for the items I'm about to list?
# experiment_notes: Displacement of [3H]flumazenil from central benzodiazepine receptor in rat brain cortex membrane
# Type: cell membranes
One number for each entry, as −log10 of the molar value.

compound_structure	pKi
CCN(CC)C(=O)Cc1c(-c2ccc(OCCCF)cc2)nc2ccc(Cl)cn12	6.10

From here, focus on the item given below.
Which pKi is reported for this molecule? CCN(CC)C(=O)Cc1c(-c2ccc(OCCF)cc2)nc2ccc(Cl)cn12
6.10

###

# experiment_notes: Biodistribution in Sprague-Dawley rat testis assessed per gram of tissue at 1 MBq, iv after 0.5 hrs
# Assay type: ADME, organism-based
# condition_description: in vivo
assay_metric: Drug uptake (%ID)
Give bare numbers, in %ID.

molecule	endpoint_result
CCN(CC)C(=O)Cc1c(-c2ccc(OCC[18F])cc2)nn2c(C)cc(C)nc12 [DPA-714 F-18]	0.21
CCN(CC)C(=O)Cc1c(-c2ccc(OCC[18F])cc2)nc2ccc(Cl)cn12	0.23
CCN(CC)C(=O)Cc1c(-c2ccc(OCCC[18F])cc2)nn2c(C)cc(C)nc12	0.28

From here, focus on the item given below.
Which Drug uptake is reported for this molecule? CCN(CC)C(=O)Cc1c(-c2ccc(OCCC[18F])cc2)nc2ccc(Cl)cn12
0.43

###

# Tested on: Liver
# experiment_notes: Biodistribution in Sprague-Dawley rat liver assessed per gram of tissue at 1 MBq, iv after 0.5 hrs
# Format: ADME, organism-based
# condition_description: in vivo
assay_metric: Drug uptake (%ID)
Give bare numbers, in %ID.

Some solved cases for reference:
compound_structure	result_units	endpoint_result
CCN(CC)C(=O)Cc1c(-c2ccc(OCCC[18F])cc2)nc2ccc(Cl)cn12	%ID	0.79
CCN(CC)C(=O)Cc1c(-c2ccc(OCCC[18F])cc2)nn2c(C)cc(C)nc12	%ID	0.98
CCN(CC)C(=O)Cc1c(-c2ccc(OCC[18F])cc2)nn2c(C)cc(C)nc12	%ID	0.54

From here, focus on the item given below.
Which Drug uptake is reported for this compound? CCN(CC)C(=O)Cc1c(-c2ccc(OCC[18F])cc2)nc2ccc(Cl)cn12
0.52
